Data origin, for the record: patent US20250304677A1

Form field: koff (one value per entry).
target: T1, mouse folate receptor alpha (mFRα), recombinant protein (mouse, UniProt P35846 25-232); assay: BLI, Avi-biotinylated FRα
T1 construct: Bought recombinant proteins (e.g. biotinylated, Acro Biosystems FO1-M82E9); also called mFOLR1; Ms FOLR1
T1 sequence (P35846 25-232 limits assumed): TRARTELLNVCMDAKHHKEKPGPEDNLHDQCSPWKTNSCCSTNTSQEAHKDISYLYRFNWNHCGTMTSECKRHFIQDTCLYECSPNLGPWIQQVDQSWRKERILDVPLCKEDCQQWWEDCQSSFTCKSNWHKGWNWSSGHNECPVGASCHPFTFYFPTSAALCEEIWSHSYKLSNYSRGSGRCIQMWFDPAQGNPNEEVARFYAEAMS
Answer with a number only, understood to be in s⁻¹.

P01500054: P01500001(I33L, N73P)-FLAG3-HIS6 (VHH, also called P0150054) VHH: EVQLVESGGGLVQPGGSLRLSCAASGSGFSGMLMGWYRQAPGKQRELVATVTSHGTTNYADSVKGRFTISRDPAKNTVYLQMNSLRPEDTAVYYCNAHFPGIYWGKGTLVTVSS	0.000147

Now look at this entry.
Looking for the measured koff of P01500019: 2HF09(Q1E, Q5V, A14P, G26E, G28P, I51V, G54H, D72E, N73G, L79Y, K83R, Q108L)-HIS6 (VHH, Entry includes the tag; also called P0150019; P01500001[G26E, G28P, D72E, N73G]) VHH: EVQLVESGGGLVQPGGSLRLSCAASESPFSGMIMGWYRQAPGKQRELVATVTSHGTTNYADSVKGRFTISREGAKNTVYLQMNSLRPEDTAVYYCNAHFPGIYWGKGTLVTVSS , can you help?
8.33e-05
